# Tested on: S1(1.1)
# experiment.description: Growth inhibition assay, S1(1.1)
# Type: cell-based
# cond: Homo sapiens, 72 h; S1(1.1); 3 days drug exposure; read-out: IC50 value
result.type: pIC50
Schema: pIC50 number; meaning minus log10 of the concentration expressed in molar units.

## Input May I ask what pIC50 has been recorded for O=c1c(-c2ccc(O)cc2)coc2cc(O)cc(O)c12 ?
## Output 5.05
